# Test system: CHIKV
# Format: cell-based, chikungunya virus
Assay Readout: Score_si1

>  <Substance>
Hs_ULK2_6 (CAGCCTGAGATACGTGCCTTA; chemistry not given here) [reference compound]

>  <Assay Readout>
Score_si1

>  <Reading>
-2.62

$$$$
>  <Substance>
Hs_MGC13138_1 (CTGGCATTTCCCGCTCATTTA; chemistry not given here) [reference compound]

>  <Assay Readout>
Score_si1

>  <Reading>
-2.19

$$$$
>  <Substance>
Hs_RPS6KC1_3 (sense ACCCTGATGCTGTATAATGTA; chemistry not given here) [reference compound]

>  <Assay Readout>
Score_si1

>  <Reading>
-2.87

$$$$
>  <Substance>
Hs_SAFB_3 (sense CTGCCATATTGTAGCTCAATA; chemistry not given here)

>  <Assay Readout>
Score_si1

>  <Reading>
1.4

$$$$
>  <Substance>
Hs_PDLIM5_3 (AAGAGACGGTTTGGCATTTAT; chemistry not given here)

>  <Assay Readout>
Score_si1

>  <Reading>
1.17

$$$$
>  <Substance>
Hs_FLJ10134_1 (CTGATGTTATATGACTATAAA; chemistry not given here)

>  <Assay Readout>
Score_si1

>  <Reading>
1.71

$$$$
>  <Substance>
Hs_NPAT_2 (AAGGCACATCTTCAAACAATA; chemistry not given here) [reference compound]

>  <Assay Readout>
Score_si1

>  <Reading>
-1.61

$$$$
>  <Substance>
Hs_NAG_2 (CAGACAGAAATTCTTTATCAA; chemistry not given here)

>  <Assay Readout>
Score_si1

>  <Reading>
2.66

$$$$
>  <Substance>
Hs_KRTCAP2_6 (sense CTGACCCTGAATGTTCAATAA; chemistry not given here)

>  <Assay Readout>
Score_si1

>  <Reading>
1.71

$$$$
>  <Substance>
Hs_TUSC1_1 (TCCCTGTACATCTAATATATA; chemistry not given here) [reference compound]

>  <Assay Readout>
Score_si1

>  <Reading>
-1.75

$$$$
>  <Substance>
Hs_ATP6AP2_3 (AAGGACTATCCTTGAGGCAAA; chemistry not given here)

>  <Assay Readout>
Score_si1

>  <Reading>
1.26

$$$$
>  <Substance>
Hs_U2AF2_3 (TAAGACGAATTTGCTCATTAA; chemistry not given here)

>  <Assay Readout>
Score_si1

>  <Reading>
2.74

$$$$
>  <Substance>
Hs_GFRA4_2 (sense CAGGTCAGAGACCATCCAGAA; chemistry not given here)

>  <Assay Readout>
Score_si1

>  <Reading>
1.82

$$$$
>  <Substance>
Hs_EEF1A1_4 (CAACGTTACAACGGAAGTAAA; chemistry not given here)

>  <Assay Readout>
Score_si1

>  <Reading>
2.64

$$$$
>  <Substance>
Hs_NDUFA2_2 (TCCACTGAGGATTAAGAGCAA; chemistry not given here)

>  <Assay Readout>
Score_si1

>  <Reading>
2.51

$$$$
>  <Substance>
s17187 (GGATTGACCTCACCCAGAA; chemistry not given here)

>  <Assay Readout>
Score_si1

>  <Reading>
2.03

$$$$
>  <Substance>
Hs_WDR40A_1 (CAGCATCAATGTGATTAGTAA; chemistry not given here) [reference compound]

>  <Assay Readout>
Score_si1

>  <Reading>
-2.68

$$$$
>  <Substance>
s6098 (sense CCTTTAACGTGGACATGTA; chemistry not given here)

>  <Assay Readout>
Score_si1

>  <Reading>
1.88

$$$$
>  <Substance>
Hs_CLCN6_4 (sense AAGATGTGAATTCAAGTATCA; chemistry not given here)

>  <Assay Readout>
Score_si1

>  <Reading>
2.72

$$$$
>  <Substance>
Hs_ASH2L_3 (TTGGAACACCCGTTTAACAAA; chemistry not given here)

>  <Assay Readout>
Score_si1

>  <Reading>
1.11

$$$$
>  <Substance>
Hs_SLC6A19_2 (sense CTCGGTGATTGTGTCCATCAT; chemistry not given here)

>  <Assay Readout>
Score_si1

>  <Reading>
2.5

$$$$
>  <Substance>
Hs_MGC21830_1 (CCGGAGACAGCGGCTGATTTA; chemistry not given here) [reference compound]

>  <Assay Readout>
Score_si1

>  <Reading>
-1.05

$$$$
>  <Substance>
Hs_FASN_3 (CCGCTACATGGCCCAAGGGAA; chemistry not given here)

>  <Assay Readout>
Score_si1

>  <Reading>
2.39

$$$$
>  <Substance>
Hs_RTN2_2 (sense GAGCTTGGATTTACACTGTAA; chemistry not given here)

>  <Assay Readout>
Score_si1

>  <Reading>
2.8

$$$$
>  <Substance>
Hs_LIP8_2 (sense AAGCATATCTTTGAGATGGAA; chemistry not given here)

>  <Assay Readout>
Score_si1

>  <Reading>
2.14

$$$$
